Value source: ChEMBL document CHEMBL2424645

Test system: Rattus norvegicus
assay_comment: Immunomodulatory activity in high fat diet-induced obese Wistar albino rat impaired immune model assessed as TNF-alpha level at 8 mg/kg, po after 8 weeks by ELISA relative to vehicle-treated control
Type: functional
The source made the active and inactive calls. No cut-off for these calls is given here.

compound	Activity
Nc1nc2c(ncn2COC2COP(=O)(COCCO)OC2)c(=O)[nH]1 (stereo not drawn)	inactive
NCCSCP1(=O)OCC(OCn2cnc3c(=O)[nH]c(N)nc32)CO1 (stereo not drawn)	inactive
CCC(CO)NCP1(=O)OCC(OCn2cnc3c(=O)[nH]c(N)nc32)CO1 (stereo not drawn)	inactive
Nc1nc2c(ncn2COC2COP(=O)(CSCCO)OC2)c(=O)[nH]1 (stereo not drawn)	inactive
COC(=O)C(NCP1(=O)OCC(OCn2cnc3c(=O)[nH]c(N)nc32)CO1)C(C)C (stereo not drawn)	37.1 pg/mL
Nc1nc2c(ncn2COC2COP(=O)(CNCCO)OC2)c(=O)[nH]1 (stereo not drawn)	inactive
CCOC(=O)C(N)CSCP1(=O)OCC(OCn2cnc3c(=O)[nH]c(N)nc32)CO1 (stereo not drawn)	36.5 pg/mL
NCCNCP1(=O)OCC(OCn2cnc3c(=O)[nH]c(N)nc32)CO1 (stereo not drawn)	inactive
